These entries and their values trace back to paper PMC2706954.

Tested on: E. faecalis ATCC29212
Assay type: cell-based
Settings: ATCC29212
# MIC E. faecalis ATCC29212 listing for each entry below
Readout Name: MIC E. faecalis ATCC29212 (µg/mL)

• CC=C1NC(=O)C2NC(=O)[C@H](CC(C)C)NC(=O)C(NC(=O)[C@@H]3CSC(C)C(NC(=O)[C@H](Cc4ccccc4)NC(=O)C4NC(=O)[C@@H](N)CSC4C)C(=O)N[C@@H](CC(C)C)C(=O)N4CCC[C@H]4C(=O)NCC(=O)NCC(=O)NCC(=O)NCC(=O)N[C@@H](C(C)C)C(=O)N3)C(C)SC[C@H](NC(=O)[C@H](CCC(=O)O)NC1=O)C(=O)N[C@@H]([C@@H](C)CC)C(=O)NC=CSC2C (stereo partly drawn) [S16Db] = 32
• C=C1NC(=O)C2NC(=O)[C@H](CC(C)C)NC(=O)C(NC(=O)[C@@H]3CSC(C)C(NC(=O)[C@H](Cc4ccccc4)NC(=O)C4NC(=O)[C@@H](N)CSC4C)C(=O)N[C@@H](CC(C)C)C(=O)N4CCC[C@H]4C(=O)NCC(=O)NCC(=O)NCC(=O)N[C@@H](Cc4ccc(O)cc4)C(=O)N[C@@H](C(C)C)C(=O)N3)C(C)SC[C@H](NC(=O)[C@H](CCC(=O)O)NC1=O)C(=O)N[C@@H]([C@@H](C)CC)C(=O)NC=CSC2C (stereo partly drawn) [G10Y] = 32
• C=C1NC(=O)C2NC(=O)[C@H](C(C)C)NC(=O)C(NC(=O)[C@@H]3CSC(C)C(NC(=O)[C@H](Cc4ccccc4)NC(=O)C4NC(=O)[C@@H](N)CSC4C)C(=O)N[C@@H](CC(C)C)C(=O)N4CCC[C@H]4C(=O)NCC(=O)NCC(=O)NCC(=O)NCC(=O)N[C@@H](C(C)C)C(=O)N3)C(C)SC[C@H](NC(=O)[C@H](CCC(=O)O)NC1=O)C(=O)N[C@@H]([C@@H](C)CC)C(=O)NC=CSC2C (stereo partly drawn) [L14V] = 64

====

# MIC E. faecium 7131121 VRE listing for each entry below
Tested on: E. faecium 7131121 VRE
Assay type: cell-based
Settings: 7131121 VRE
Readout Name: MIC E. faecium 7131121 VRE

• C=C1NC(=O)C2NC(=O)[C@H](C(C)C)NC(=O)C(NC(=O)[C@@H]3CSC(C)C(NC(=O)[C@H](Cc4ccccc4)NC(=O)C4NC(=O)[C@@H](N)CSC4C)C(=O)N[C@@H](CC(C)C)C(=O)N4CCC[C@H]4C(=O)NCC(=O)NCC(=O)NCC(=O)NCC(=O)N[C@@H](C(C)C)C(=O)N3)C(C)SC[C@H](NC(=O)[C@H](CCC(=O)O)NC1=O)C(=O)N[C@@H]([C@@H](C)CC)C(=O)NC=CSC2C (stereo partly drawn) [L14V] = >64 µg/mL
• C=C1NC(=O)C2NC(=O)[C@H](CC(C)C)NC(=O)C(NC(=O)[C@@H]3CSC(C)C(NC(=O)[C@H](Cc4c[nH]c5ccccc45)NC(=O)C4NC(=O)[C@@H](N)CSC4C)C(=O)N[C@@H](CC(C)C)C(=O)N4CCC[C@H]4C(=O)NCC(=O)NCC(=O)NCC(=O)NCC(=O)N[C@@H](C(C)C)C(=O)N3)C(C)SC[C@H](NC(=O)[C@H](CCC(=O)O)NC1=O)C(=O)N[C@@H]([C@@H](C)CC)C(=O)NC=CSC2C (stereo partly drawn) [F3W] = 32 µg/mL
• C=C1NC(=O)C2NC(=O)[C@H](CC(C)C)NC(=O)C(NC(=O)[C@@H]3CSC(C)C(NC(=O)[C@H](Cc4ccccc4)NC(=O)C4NC(=O)[C@@H](N)CSC4C)C(=O)N[C@@H](CC(C)C)C(=O)N4CCC[C@H]4C(=O)NCC(=O)NCC(=O)NCC(=O)N[C@@H](C)C(=O)N[C@@H](C(C)C)C(=O)N3)C(C)SC[C@H](NC(=O)[C@H](CCC(=O)O)NC1=O)C(=O)N[C@@H]([C@@H](C)CC)C(=O)NC=CSC2C (stereo partly drawn) [G10A] = >64 µg/mL
